target: human 5-hydroxytryptamine-2C (h-5-HT2C) receptor (Homo sapiens, UniProt P28335); assay: [125I]DOI binding to membranes of CHO cells expressing the h-5-HT2C receptor; details: 5-HT2c Affinity KI (nM), displacement of [125I]DOI, CHO cell membranes
Rule: Ki below 10 nM gives yes (1). Equal to or above 10 nM gives no (0).

Answered examples (8):
Challenge: Hello, is Ki of the following compound strictly smaller than 10 nM? `CN1CCc2c(Cl)ccc3c4c(n(c23)CC1)CCCC4`
Response given: no (0)

Challenge: Does `CN1CCc2cccc3c4c(n(c23)CC1)CCSC4` have Ki strictly under 10 nM?
Response given: no (0)

Challenge: Take the compound c1cc2c3c(c1)[C@H]1CCC[C@H]1N3CCNCC2 (single isomer, unassigned) [Example 46] and say whether its Ki is less than 10 nM.
Response given: no (0)

Challenge: Lab note: Ki threshold 10 nM. Does this compound come in strictly under it? `Fc1ccc2c3c1c1c(n3CCNCC2)CCC1`
Response given: no (0)

Challenge: Confirm or reject: Ki of Fc1ccc2c3c1[C@H]1CCCC[C@H]1N3CCNCC2 (single isomer, unassigned) [Example 32] lies strictly below 10 nM
Response given: yes (1)

Challenge: Item Clc1ccc2c3c1[C@H]1CCCC[C@H]1N3CCNCC2 (single isomer, unassigned) [Example 43] : Ki beneath 10 nM, strictly?
Response given: yes (1)

Challenge: Regarding `Clc1ccc2c3c1c1c(n3CCNCC2)CCCC1` , kindly confirm whether its Ki is beneath 10 nM.
Response given: yes (1)

Challenge: Does the reported Ki of `c1cc2c3c(c1)c1c(n3CCNCC2)CCCCC1` stay below 10 nM?
Response given: no (0)

---
Challenge: Answer whether the compound CN1CCc2ccc(F)c3c2N(CC1)C1CCCCC31 (centres unmarked) has Ki strictly less than 10 nM
Response given: no (0)

Challenge: In the record for `CN1CCc2cccc3c4c(n(c23)CC1)CCCCC4` , is Ki less than 10 nM?
Response given: no (0)

Challenge: Check if Ki falls below 10 nM for Fc1ccc2c3c1C1CCCC1N3CCNCC2 (centres unmarked) .
Response given: no (0)

Challenge: Could you please tell me whether Ki recorded for c1cc2c3c(c1)C1CCCCC1N3CCNCC2 (centres unmarked) is less than 10 nM?
Response given: no (0)

====

target: human 5-hydroxytryptamine-2C (h-5-HT2C) receptor (Homo sapiens); assay: [125I]DOI binding to membranes of CHO cells expressing the h-5-HT2C receptor; conditions: reference compounds; displacement of [125I]DOI, CHO cell membranes; read-out: Ki (95% confidence interval)
assay.readout: pKi
Would you please state pKi, meaning minus log10 of the concentration in mol/L, as a bare number?

The measured pKi associated with CSc1ccc2c(c1)C(N1CCN(C)CC1)Cc1ccccc1S2 (stereo not shown) [Methiothepin, reference compound] reads 8.34

====

Target: human 5-HT2C receptor (Homo sapiens)
Sequence (P28335 33-458): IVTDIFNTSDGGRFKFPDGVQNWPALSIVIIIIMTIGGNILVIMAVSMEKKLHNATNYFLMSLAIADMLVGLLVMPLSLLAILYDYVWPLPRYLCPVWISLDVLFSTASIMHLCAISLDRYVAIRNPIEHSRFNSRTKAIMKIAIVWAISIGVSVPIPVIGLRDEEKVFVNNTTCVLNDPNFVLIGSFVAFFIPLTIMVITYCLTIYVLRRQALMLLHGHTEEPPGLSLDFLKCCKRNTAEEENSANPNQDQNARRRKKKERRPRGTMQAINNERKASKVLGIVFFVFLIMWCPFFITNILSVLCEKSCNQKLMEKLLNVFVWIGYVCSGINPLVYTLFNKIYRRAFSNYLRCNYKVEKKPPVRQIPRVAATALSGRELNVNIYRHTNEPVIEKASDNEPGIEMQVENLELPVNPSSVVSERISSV
Assay: 5-HT2C receptor-stimulated calcium mobilization (FLIPR) in CHO cells
Type: cell-based
Conditions: CHO, read-out: 5-HT2C Function Emax (%)
assay.readout: Emax (%)
Hi! Could you send only the number? It should be in %, unit omitted.

Emax measured on `c1cc2c3c(c1)c1c(n3CCNCC2)CCC1` = 80

Value of measured Emax for the entry CN1CCc2ccc(Cl)c3c2N(CC1)C1CCCC31 (stereo not shown) : 40

Emax recorded for this compound, `Clc1ccc2c3c1c1c(n3CCNCC2)CCC1` , is 90

So for c1cc2c3c(c1)C1CCCC1N3CCNCC2 (stereo not shown) , the logged Emax turned out to be 90

Entry c1cc2c3c(c1)C1CCCCC1N3CCNCC2 (stereo not shown) , Emax reported as 80

***
Form field Emax, entry `CN1CCc2cccc3c4c(n(c23)CC1)CCC4` : 45

Recorded Emax (compound CN1CCc2ccc(F)c3c2N(CC1)C1CCCCC31 (stereo not shown) ): 70

According to the records, this compound `CN1CCc2ccc(Cl)c3c4c(n(c23)CC1)CCC4` displays Emax of 40

Entry CN1CCc2cccc3c2N(CC1)C1CCCC31 (stereo not shown) — recorded Emax = 50

Recorded result, Clc1ccc2c3c1C1CCCCC1N3CCNCC2 (stereo not shown) , Emax: 90

Lab book: Emax of Fc1ccc2c3c1C1CCCCC1N3CCNCC2 (stereo not shown) noted as 60

====

target: human 5-HT2C receptor (Homo sapiens, UniProt P28335); assay: 5-HT2C receptor-stimulated calcium mobilization (FLIPR) in CHO cells; type: cell-based
In this section we review reported EC50 values for a set of compounds.
Please don't drop the unit; write it after the number.

// field: EC50; key: c1cc2c3c(c1)C1CCCC1N3CCNCC2 (stereo not drawn) [Example 4] ; value = 18 nM

====

Structures can show the parent of a compound that is named as a salt.
# Lookup of reported melting point keyed by entry

A selection of reference data follows.
Looking up Clc1ccc2c3c1CCNCCN3C1CCCCCC21 (stereo not drawn) (as salt: fumarate) [Example 22] , I found its melting point recorded as 168 to 170 °C

Lab note: CN1CCc2ccc(F)c3c4c(n(c23)CC1)CCC4 (as salt: fumarate) [Example 24] gave melting point of 168 to 170 °C

Further cases:
Measured melting point of c1cc2c3c(c1)C1CCCC1N3CCNCC2 (stereo not drawn) (as salt: hydrochloride) [Example 4] : 137 to 140 °C

====

Parameter: pEC50. Scope: all listed entries.
biological target: human 5-HT2C receptor (Homo sapiens); assay: 5-HT2C receptor-stimulated calcium mobilization (FLIPR) in CHO cells; assay type: cell-based
pEC50 is defined as minus the log10 of a concentration measured in mol/L.

Fc1ccc2c3c1C1CCCC1N3CCNCC2 (stereo not shown) tested on human 5-HT2C receptor (Homo sapiens) gave pEC50: 7.44

Assay human 5-HT2C receptor (Homo sapiens), sample c1cc2c3c(c1)[C@H]1CCC[C@H]1N3CCNCC2 (single isomer, unassigned) , pEC50 read: 7.42

Record `CN1CCc2cccc3c4c(n(c23)CC1)CCCC4` has human 5-HT2C receptor (Homo sapiens) pEC50 equal to 7.17

Continuing:
Simply: Clc1ccc2c3c1C1CCCCC1N3CCNCC2 (stereo not shown) , human 5-HT2C receptor (Homo sapiens), pEC50 = 7.04

Response field pEC50 (human 5-HT2C receptor (Homo sapiens)) for item `CN1CCc2ccc(Cl)c3c4c(n(c23)CC1)CCC4` : 7.09

The recorded pEC50 with human 5-HT2C receptor (Homo sapiens) for Clc1ccc2c3c1C1CCCC1N3CCNCC2 (stereo not shown) was 7.09

Short answer on human 5-HT2C receptor (Homo sapiens) for c1cc2c3c(c1)[C@H]1CCCC[C@H]1N3CCNCC2 (single isomer, unassigned) , pEC50: 7.38

====

biological target: human 5-hydroxytryptamine-2C (h-5-HT2C) receptor (Homo sapiens, UniProt P28335); test: [125I]DOI binding to membranes of CHO cells expressing the h-5-HT2C receptor; settings: 5-HT2c Affinity KI (nM), displacement of [125I]DOI, CHO cell membranes
Response field label: string, one of fulfilled (Ki strictly below 10 nM) or not fulfilled.

Challenge: Quick check: does c1cc2c3c(c1)[C@H]1CCC[C@H]1N3CCNCC2 (single isomer, unassigned) [Example 45] have Ki under 10 nM?
Response given: not fulfilled

Challenge: Is Ki strictly under 10 nM for the entry CN1CCc2c(Cl)ccc3c2N(CC1)C1CCCCCC31 (centres unmarked) [Example 16] ?
Response given: not fulfilled

Challenge: Regarding CN1CCc2cccc3c4c(n(c23)CC1)CCC4 [Example 1] , kindly confirm whether its Ki is beneath 10 nM.
Response given: not fulfilled

Challenge: Decide: Ki of CN1CCc2ccc(Cl)c3c4c(n(c23)CC1)CCCC4 [Example 35] strictly below 10 nM?
Response given: not fulfilled

Challenge: Consider the compound Fc1ccc2c3c1c1c(n3CCNCC2)CCCC1 [Example 29] . Is its Ki strictly less than 10 nM?
Response given: fulfilled

Challenge: Ki under 10 nM? Item: Clc1ccc2c3c1C1CCCC1N3CCNCC2 (centres unmarked) [Example 40]
Response given: not fulfilled

Challenge: Would you kindly verify if Ki of Fc1ccc2c3c1C1CCCCC1N3CCNCC2 (centres unmarked) [Example 31] is strictly less than 10 nM?
Response given: fulfilled
